# subject of test: pooled human IgG (human IgG1,2,3 and 4)
Entries and their measured Enzyme Activity Endpoint Assay: Fc follow.
Just the number in ng/µL, nothing appended.

Some solved entries appear below for comparison.
PRT-460 (protein) MVTSVWTKGVTPPTDFIKGEDVFHAPYKAGQGWYDITKTFNGKDDLLCGAATAGNMLHWWFDQNKDQIERYLKEHPEKQKINFNGEQMFDVKEAIDTKDSQTDSKLFEYFKEKAFPYLSTKHLGVFPDHVLDMFINGYRLSLTNHGPTPVKEGSKDPRGGIFDAVFTRGDQSKLLTSRHDLKNKTLKEISDLIKQELTEGKALGLSHTYANVRINHVINLWGADFDSEGNLKAIYVTDSDSNASIGMKKYFVGVNSAGKVAISAKEIKEDNIGAQVLGLFTLSTGQDIWNQTNLEHHHHHH; 108
PRT-191 (protein) MANQEIRYSEVTPYHVTSVWTKGVTPPANFTQGEDVFHAPYVANQGWYDITKTFNGKDDLLCGAATAGNMLHWWFDQNKDQIKRYLEEHPEKQKINFNGEQMFDVKEAIDTKNHQLDSKLFEYFKEKAFPYLSTKHLGVFPDHVIDMFINGYRLSLTNHGPTPVKEGSKDPRGGIFDAVFTRGDQSKLLTSRHDFKEKNLKEISDLIKKELTEGKALGLSHTYANVRHSINHVINLWGADFDSNGNLKAIYVTDSDSNASIGMKKYFVGVNSAGKVAISAKEIKEDNIGAQVLGLFTLSTGQDSWNQTN; 183
PRT-446 (protein) MVTSVWTKGVTPPTDFIKGEDVFHAPYKAGQGWYDITKTFNGKDDLLCGAATAGNMLHWWFDQNKDQIEAYLKEHPEKQKINFNGEQMFDVKEAIDTKDDQTNSKLFEYFKEKAFPYLSTKHLGVFPDHVLDMFINGYRLSLTNHGPTPVKEGSKDPRGGIFDAVFTRGDQSKLLTSRHDFKEKTLKEISDLIKQELTEGKALALSHTYANVRINHVINLWGADFDSNGNLEAIYVTDSDSNASIGMKKYFVGVNSAGKVAISAKEIEDDNIGAQVLGLFTLSTGQDIWNQTNLEHHHHHH; 427

// next entry
Query: Reported Enzyme Activity Endpoint Assay: Fc for PRT-301 (protein) MVTSVWTKGVTPPTDFIKGEDVFHAPYDAGQGWYDITKTFNGKDDLLCGAATAGNMLHWWFDQNKEYIEAYLKKHPEKQKIMFGDQELLDVRKAINTKGSQKNSELFNYFRDKAFPNLSARRLGVMPDLVLDMFINGYYLNVTKTQTTDVNRTYQEKDKRGGIFDAVFTRGDQSKLLTSRHDFKEKGLKEISDLIKQELTEGKALGLSHTYANVRISHVINLWGADFDSDGNLKAIYVTDSDSNASIGMKKYFVGVNSAGKVAISAKEIKEDNIGAQVLGLFTLSTGQDIWNQTN : what is it?
Reply: 0

The values you see were collected from patent US20250027068.
